Target: human TRPM8
Experiment: TRPM8 Protocol-FLIPR Assay (intracellular Ca2+ in HEK-293 cells stably transfected with human TRPM8)
Conditions: HEK-293 cells stably transfected with human TRPM8, Fluo-4 AM, read-out: TRPM8 EC 50 Value
Protocol: Trypsin was inactivated by addition of 8 ml growth medium. Cells were transferred to a 50 ml tube and centrifuged at 850 rpm for 3 minutes to remove medium. After centrifugation, a pellet of cells was formed in the bottom of the tube separating them from the supernatant solution. […] Fluo-4 AM is a fluorescent dye used for quantifying cellular Ca^2+ concentrations in the 100 nM to 1 microM range. […]
pEC50: −log10 of the molar value.
measured-quantity: pEC50

[I] CC(C)[C@@H]1CC[C@@H](C)C[C@H]1OC(=O)C[C@@H](NC(=O)CN)c1ccccc1
[II] CC(C)[C@H]1CC[C@H](C)C[C@@H]1OC(=O)C[C@@H](NC(=O)CN)c1ccccc1
Task: Lab note: check whether I or II has the lower measured pEC50. Label of pick, please.
Output: II
(II: 6.05, I: 7.21)

[A] CC(C)[C@@H]1CC[C@@H](C)C[C@H]1OC(=O)CCCCCN
[B] CC(C)[C@@H]1CC[C@@H](C)C[C@H]1C(=O)OC[C@@H](OC(=O)CN)c1ccccc1
[C] CC(C)[C@@H]1CC[C@@H](C)C[C@H]1C(=O)OC[C@@H](OC(=O)CNC(=O)OC(C)(C)C)c1ccccc1
[D] CC(C)[C@@H]1CC[C@@H](C)C[C@H]1OC(=O)C[C@@H](NC(=O)[C@H](C)N)c1ccccc1
Task: Output the entries ranked by pEC50 from maximum down to minimum. # list labels per requested ordering
Output: B, D, C, A
(B: 7.89, D: 6.04, C: 5.35, A: 5.02)
